# System: CLZ3 (HCA2 human fibroblast dual HR-NHEJ reporter)
# Test: HR repair efficiency (tdTomato+ cells) relative to control (log10 fold); higher = more homologous recombination
# Condition details: 5 µM; doxycycline 0.5 ug/mL
Where a name gives a salt, the structure may show the parent alone.
Let's look at some compounds and their measured HR repair efficiency (log10).

# Compound, HR repair efficiency (log10)
records = [
    ("OCCc1ccc(O)cc1 [Tyrosol]", 0.306),
    ("C[C@@H]1O[C@@H](O[C@H]2[C@H](Oc3cc(O)c4c(c3)O[C@H](c3ccc(O)cc3)CC4=O)O[C@H](CO)[C@@H](O)[C@@H]2O)[C@H](O)[C@H](O)[C@H]1O [Naringin]", -0.0146),
    ("COc1cc2c(c(OC)c1OC)-c1c(cc3c(c1OC)OCO3)C[C@H](C)[C@@](C)(O)C2 [Schizandrol B]", -0.132),
    ("COc1cc(C2Oc3cc([C@H]4Oc5cc(O)cc(O)c5C(=O)[C@@H]4O)ccc3OC2CO)ccc1O (some centres undefined) [Silybin (Silymarin)]", 0.183),
    ("C[C@@H]1CC[C@]2(C(=O)O)CC[C@]3(C)C(=CC[C@@H]4[C@@]5(C)CC[C@H](O)[C@@](C)(CO)[C@@H]5CC[C@]43C)[C@@H]2[C@]1(C)O [Rotundic Acid]", 0.0236),
    ("C[N+](C)(C)[C@H](Cc1c[nH]c2ccccc12)C(=O)[O-] [Hypaphorine]", -0.124),
    ("COc1ccc2cc3[n+](cc2c1OC)CCc1cc2c(cc1-3)OCO2 [Berberine hydrochloride]", -0.283),
    ("O=c1c(-c2ccc(O)cc2)coc2cc(O)cc(O)c12 [Genistein]", -0.179),
    ("O=c1cc(-c2ccc(O)cc2)oc2cc(O)c([C@@H]3O[C@H](CO)[C@@H](O)[C@H](O)[C@H]3O)c(O)c12 [Isovitexin]", 0.0479),
    ("CC(C)=CCc1cc2c(cc1O)O[C@H](c1ccc(O)cc1)CC2=O [Bavachin]", 0.0642),
    ("O=C1O[C@H]2[C@@H]3OC(=O)c4cc(O)c(O)c(O)c4-c4c(O)c(O)c5oc(=O)c6c(c(O)c(O)c7oc(=O)c4c5c76)-c4c(cc(O)c(O)c4O)C(=O)OC[C@H]3OC(O)[C@@H]2OC(=O)c2cc(O)c(O)c(O)c2-c2c1cc(O)c(O)c2O (mixture of isomers) [Punicalagin]", -0.254),
    ("COc1cc(-c2oc3cc(O)cc(O)c3c(=O)c2O[C@@H]2O[C@H](CO)[C@@H](O)[C@H](O)[C@H]2O)ccc1O [Isorhamnetin-3-O-Glucoside]", -0.00603),
    ("C[C@@H]1CC[C@@]2(OC1)O[C@H]1C[C@H]3[C@@H]4CC[C@H]5C[C@@H](O)CC[C@]5(C)[C@H]4CC[C@]3(C)[C@H]1[C@@H]2C [Tigogenin]", 0.0468),
    ("CC1(C)C2CCC1(C)C(O)C2 (centres undefined) [Borneol]", 0.0372),
]

----------
Let's look at some compounds and their measured NHEJ repair efficiency (log10).
# Test system: CLZ3 (HCA2 human fibroblast dual HR-NHEJ reporter)
# Test: NHEJ repair efficiency (GFP+ cells) relative to control (log10 fold); higher = more non-homologous end joining
# Condition details: 5 µM; doxycycline 0.5 ug/mL
Property: NHEJ repair efficiency (log10)

# Compound, Recorded result
measured = [
    ("CC(C)=CCC[C@](C)(O[C@@H]1O[C@H](CO[C@@H]2OC[C@H](O)[C@H](O)[C@H]2O)[C@@H](O)[C@H](O)[C@H]1O)[C@H]1CC[C@]2(C)[C@@H]1[C@H](O)C[C@@H]1[C@@]3(C)CC[C@H](O[C@@H]4O[C@H](CO)[C@@H](O)[C@H](O)[C@H]4O[C@@H]4O[C@H](CO)[C@@H](O)[C@H](O)[C@H]4O)C(C)(C)[C@@H]3CC[C@]12C [Ginsenoside Rb2]", 0.0156),
    ("Cn1cnc2c1c(=O)[nH]c(=O)n2C", -0.0855),
    ("COc1c(O[C@@H]2O[C@H](CO)[C@@H](O)[C@H](O)[C@H]2O)cc2oc(-c3ccc(O)cc3)cc(=O)c2c1O", 0.0189),
    ("OCCc1ccc(O)c(O)c1 [Hydroxytyrosol]", 0.0571),
    ("CC(=O)O[C@H]1CC(=O)OC(C)(C)[C@@H]2CC(=O)[C@]3(C)[C@H](CC[C@@]4(C)[C@@H](c5ccoc5)OC(=O)[C@H]5O[C@]543)[C@@]12C", -0.276),
    ("CC1(C)CCC2(C(=O)OC3OC(CO)C(O)C(O)C3O)CCC3(C)C(=CCC4C5(C)CCC(OC6OC(C(=O)O)C(OC7OCC(O)C(OC8OC(CO)C(O)C(O)C8O)C7O)C(O)C6O)C(C)(C)C5CCC43C)C2C1 (stereo unspecified) [Oleanoside A]", -0.111),
]

----------
# Tested on: CLZ3 (HCA2 human fibroblast dual HR-NHEJ reporter)
# Test: HR repair efficiency (tdTomato+ cells) relative to control (log10 fold); higher = more homologous recombination
# Condition details: 5 µM; doxycycline 0.5 ug/mL
Satisfied means recorded HR repair efficiency (log10) is -0.05 or above; Not satisfied means it is below -0.05.

# Compound, Category label
records = [
    ("COc1ccc([C@@H]2CC(=O)c3c(O)cc(O[C@@H]4O[C@H](CO)[C@@H](O)[C@H](O)[C@H]4O[C@@H]4O[C@@H](C)[C@H](O)[C@@H](O)[C@H]4O)cc3O2)cc1O", "Not satisfied"),
    ("COc1cc(/C=C/c2ccc(O)cc2)cc(OC)c1", "Satisfied"),
    ("O=C(O)C(O)c1ccccc1 (centres undefined)", "Satisfied"),
    ("O=C(O)CC(O)C(=O)O (centres undefined)", "Not satisfied"),
    ("CC1(C)CC[C@]2(C(=O)O)[C@H](O)C[C@]3(C)C(=CC[C@@H]4[C@@]5(C)CC[C@H](O)C(C)(C)[C@@H]5CC[C@]43C)[C@H]2C1", "Satisfied"),
    ("CCOC(=O)c1c(C(=O)OCC)c(O)c2ccccc2c1O [Rubidate]", "Satisfied"),
    ("CC(C)=CCc1c(O)ccc(C(=O)/C=C/c2ccc(O)cc2)c1O", "Satisfied"),
    ("COC(=O)c1ccc(O)cc1", "Satisfied"),
    ("COc1c(O)cc2c(c1O)[C@@H]1O[C@H](CO)[C@@H](O)[C@H](O)[C@H]1OC2=O", "Satisfied"),
    ("c1ccc2c(c1)OC1c3ccccc3OCC21 (centres undefined)", "Not satisfied"),
    ("COC(=O)[C@H](c1ccccc1Cl)N1CCc2sccc2C1 [Clopidogrel bisulfate]", "Satisfied"),
    ("COC(=O)C1=CO[C@@H](O[C@@H]2O[C@H](CO)[C@@H](O)[C@H](O)[C@H]2O)[C@@H]2[C@@H](C)[C@@H](O)C[C@H]12", "Satisfied"),
    ("C[C@@H]1O[C@@H](OC[C@H]2O[C@@H](Oc3cc(O)c4c(c3)O[C@H](c3ccc(O)cc3)CC4=O)[C@H](O)[C@@H](O)[C@@H]2O)[C@H](O)[C@H](O)[C@H]1O", "Not satisfied"),
    ("O=C(O)c1cc(O)c2c(c1)[C@H]([C@H]1c3cc(C(=O)O)cc(O)c3C(=O)c3c(O[C@@H]4O[C@H](CO)[C@@H](O)[C@H](O)[C@H]4O)cccc31)c1cccc(O[C@@H]3O[C@H](CO)[C@@H](O)[C@H](O)[C@H]3O)c1C2=O [Sennoside A]", "Satisfied"),
    ("C[C@H]1O[C@@H](O[C@H]2CC[C@@]3(C)[C@@H](CC[C@]4(C)[C@@H]3C=C[C@]35OC[C@@]6(CCC(C)(C)C[C@H]63)[C@@H](O)C[C@]54C)[C@]2(C)CO)[C@H](O)[C@@H](O[C@@H]2O[C@H](CO)[C@@H](O)[C@H](O)[C@H]2O)[C@H]1O", "Not satisfied"),
    ("COc1c2c(cc3oc(C)cc(=O)c13)O[C@H](C(C)(C)O)C2", "Not satisfied"),
    ("C[C@@H]1O[C@@H](O[C@@H]2[C@H](O)[C@@H](O)[C@H](O[C@H]3CC[C@@]4(C)C(CC[C@]5(C)C4C=C[C@]46OC[C@@]7(CCC(C)(C)CC74)[C@@H](O)C[C@]65C)C3(C)C)O[C@@H]2CO[C@@H]2O[C@H](CO)[C@@H](O)[C@H](O)[C@H]2O)[C@H](O)[C@H](O)[C@H]1O (some centres undefined)", "Not satisfied"),
    ("CC1(C)CC[C@]2(C(=O)O)CC[C@]3(C)C(=CC[C@@H]4[C@@]5(C)CC[C@H](O)[C@@](C)(CO)[C@@H]5CC[C@]43C)[C@@H]2C1", "Not satisfied"),
    ("C[C@@H]1O[C@@H](Oc2cc(O)c3c(=O)c(O[C@@H]4O[C@@H](C)[C@H](O)[C@@H](O)[C@H]4O)c(-c4ccc(O)cc4)oc3c2)[C@H](O)[C@H](O)[C@H]1O", "Satisfied"),
]
